biological target: Tyrosine-protein kinase receptor UFO (Homo sapiens) (UniProt P30530); conditions: at 0.1 µM;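 further: values are mean percent inhibition of AXL from the GSK PKIS screen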
Sequence (P30530 whole entry): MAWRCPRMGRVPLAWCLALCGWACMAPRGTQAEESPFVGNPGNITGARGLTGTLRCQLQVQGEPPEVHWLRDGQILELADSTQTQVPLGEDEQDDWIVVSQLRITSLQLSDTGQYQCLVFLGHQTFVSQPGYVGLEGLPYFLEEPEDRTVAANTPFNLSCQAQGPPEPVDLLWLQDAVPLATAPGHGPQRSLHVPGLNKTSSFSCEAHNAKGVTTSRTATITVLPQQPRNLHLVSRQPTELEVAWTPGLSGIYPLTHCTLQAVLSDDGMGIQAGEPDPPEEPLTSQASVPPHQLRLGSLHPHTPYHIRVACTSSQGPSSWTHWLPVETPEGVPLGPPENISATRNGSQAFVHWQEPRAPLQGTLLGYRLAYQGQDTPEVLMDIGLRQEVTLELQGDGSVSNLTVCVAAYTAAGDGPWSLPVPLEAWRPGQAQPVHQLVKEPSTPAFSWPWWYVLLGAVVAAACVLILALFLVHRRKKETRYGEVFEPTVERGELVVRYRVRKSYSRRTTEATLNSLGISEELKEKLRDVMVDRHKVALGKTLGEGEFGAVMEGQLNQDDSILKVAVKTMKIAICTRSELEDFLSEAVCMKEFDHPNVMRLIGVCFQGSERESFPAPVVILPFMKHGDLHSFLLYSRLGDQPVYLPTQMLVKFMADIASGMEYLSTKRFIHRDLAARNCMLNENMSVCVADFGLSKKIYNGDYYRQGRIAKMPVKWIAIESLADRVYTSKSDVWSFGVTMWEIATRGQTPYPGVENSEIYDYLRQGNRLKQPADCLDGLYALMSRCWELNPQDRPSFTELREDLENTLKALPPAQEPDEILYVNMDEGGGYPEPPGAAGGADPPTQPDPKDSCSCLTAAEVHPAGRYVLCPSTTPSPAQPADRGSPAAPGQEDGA
Give measured inhibition for each item. Keep answers brief.
Provide only the numeric value, understood in %.

### Prompt Please look at this compound and report its inhibition: CS(=O)(=O)Nc1ccc(-c2cc(-c3ccccc3)cc(C(N)=O)c2N)cc1
### Response -4.02

### Prompt Please look at this compound and report its inhibition: Fc1ccc(Nc2nccc(-c3c(-c4ccc(C(F)(F)F)cc4)nn4ncccc34)n2)cc1F
### Response -5.49

### Prompt Please look at this compound and report its inhibition: c1ccc(-c2n[nH]cc2-c2ccnc(-c3ccc(OCCn4ccnc4)cc3)c2)nc1
### Response -0.5

### Prompt Please look at this compound and report its inhibition: Fc1cccc(COc2ccc(Nc3ncncc3C#Cc3ccccc3)cc2Cl)c1
### Response -5.96

### Prompt Please look at this compound and report its inhibition: Cc1cc(O)cc(C)c1/C=C/c1cncc(C(=O)OC(C)(C)C)c1
### Response -3.22

###

Give measured inhibition for each item. Keep answers brief.
molecular target: Protein kinase C beta type (Homo sapiens) (UniProt P05771); settings: at 1 µM;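 further: mean inhibition value, enzyme form tested was the PKC-beta1 splice variant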
Sequence (P05771 2-671 limits assumed): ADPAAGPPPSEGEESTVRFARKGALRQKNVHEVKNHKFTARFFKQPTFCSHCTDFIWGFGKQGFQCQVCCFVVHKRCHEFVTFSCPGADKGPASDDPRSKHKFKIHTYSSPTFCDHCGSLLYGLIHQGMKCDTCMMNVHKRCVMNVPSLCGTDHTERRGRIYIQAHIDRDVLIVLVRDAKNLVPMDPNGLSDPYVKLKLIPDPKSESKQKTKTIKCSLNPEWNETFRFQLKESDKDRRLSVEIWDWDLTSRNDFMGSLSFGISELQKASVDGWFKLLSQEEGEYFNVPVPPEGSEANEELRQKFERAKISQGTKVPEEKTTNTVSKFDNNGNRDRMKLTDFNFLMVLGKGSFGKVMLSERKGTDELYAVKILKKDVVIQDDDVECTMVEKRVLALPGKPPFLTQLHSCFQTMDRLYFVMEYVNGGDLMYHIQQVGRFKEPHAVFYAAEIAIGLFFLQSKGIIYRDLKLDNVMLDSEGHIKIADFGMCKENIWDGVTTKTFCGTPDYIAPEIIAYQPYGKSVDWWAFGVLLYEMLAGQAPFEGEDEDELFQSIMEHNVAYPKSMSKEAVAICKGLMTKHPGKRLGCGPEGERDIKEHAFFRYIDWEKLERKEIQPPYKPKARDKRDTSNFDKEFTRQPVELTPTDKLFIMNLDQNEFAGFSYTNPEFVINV
Description: GSK_PKIS: PKC-beta1 (splice variant) mean inhibition at 1 uM [Nanosyn]
Provide only the numeric value, understood in %.

### Prompt Please look at this compound and report its inhibition: O=C(O[C@H]1CN[C@H](C#Cc2cc3ncnc(Nc4ccc5c(ccn5Cc5cc(F)ccc5F)c4)c3s2)C1)N1CCOCC1
### Response 1.27

### Prompt Please look at this compound and report its inhibition: FC(F)(F)CNc1nccc(-c2cnn3ncccc23)n1
### Response 1.54

### Prompt Please look at this compound and report its inhibition: CC1=C(C(=O)Nc2ccc3[nH]ncc3c2)C(c2ccc(F)cc2)N=C(c2ccc(C(F)(F)F)nc2)N1 (centres undefined)
### Response -0.53

### Prompt Please look at this compound and report its inhibition: CNC(=O)c1ncccc1Nc1nc(Nc2cc3c(cc2OC)CCCN3C(=O)CN(C)C)nc2[nH]ccc12
### Response 1.37

### Prompt Please look at this compound and report its inhibition: CC1=C(C(=O)Nc2ccc3[nH]nc(C)c3c2)C(c2ccc(C(F)(F)F)cc2)CC(=O)N1 (centres undefined)
### Response -0.53

### Prompt Please look at this compound and report its inhibition: CCS(=O)(=O)c1ccc(OC)c(Nc2ncc(-c3cccc(F)c3)o2)c1
### Response 2.28

### Prompt Please look at this compound and report its inhibition: Cn1c(-c2nonc2N)nc2cnccc21
### Response 36.2

### Prompt Please look at this compound and report its inhibition: COc1ccc(-c2nn3ncccc3c2-c2ccnc(Nc3ccc(F)c(F)c3)n2)cc1
### Response 5.16

### Prompt Please look at this compound and report its inhibition: COc1c(C(N)=O)cc(-c2ccc(Cl)cc2)cc1-c1ccc(S(N)(=O)=O)cc1
### Response 3.84

###

target: Insulin receptor (Homo sapiens); details: at 1 µM;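 further: each figure is a mean inhibition value from the GSK PKIS screening panel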
metric: inhibition

### Prompt Please look at this molecule and report its inhibition: Cc1ccc(-c2cc3c(NC(=O)C4CC4)ncnc3o2)cc1
### Response 5.18%

### Prompt Please look at this molecule and report its inhibition: c1ccc(-c2n[nH]cc2-c2ccnc(-c3ccc(OCCn4ccnc4)cc3)c2)nc1
### Response 2.56%

### Prompt Please look at this molecule and report its inhibition: Cn1c(-c2nonc2N)nc2cnccc21
### Response 6.68%

### Prompt Please look at this molecule and report its inhibition: CC1=C(C(=O)Nc2ccc3[nH]ncc3c2)C(c2ccc(F)cc2)N=C(c2ccc(C(F)(F)F)nc2)N1 (stereo not given)
### Response 1.7%

### Prompt Please look at this molecule and report its inhibition: Fc1cccc(COc2ccc(Nc3ncncc3C#Cc3ccccc3)cc2Cl)c1
### Response 4.63%

### Prompt Please look at this molecule and report its inhibition: c1cnn2ncc(-c3ccnc(NCCCN4CCOCC4)n3)c2c1
### Response 4.01%

### Prompt Please look at this molecule and report its inhibition: Cc1nnc(-c2cccc(-c3ccc(C(=O)NCC4CC4)cc3)c2)o1
### Response 5.71%

### Prompt Please look at this molecule and report its inhibition: NS(=O)(=O)c1cccc(N/C=C2\C(=O)Nc3ccccc32)c1
### Response 11.9%

### Prompt Please look at this molecule and report its inhibition: Cc1cc(O)cc(C)c1/C=C/c1cncc(C(=O)OC(C)(C)C)c1
### Response 4.74%

### Prompt Please look at this molecule and report its inhibition: CS(=O)(=O)CCNCc1ccoc1-c1ccc2ncnc(Nc3ccc(OCc4ccccc4)cc3)c2c1
### Response 1.13%
